Values from the supplement of paper PMC10981050

Test system: MOLM14
Assay: cell viability relative to vehicle control; higher = less cytotoxic;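 also: after 48 h exposure read by CellTiter-Glo luminescence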
Settings: 10 µM; SRSF2 genotype: SRSF2 wt/wt
Experimental readout: cell viability (%)

Compound | Experimental readout | Result
CCC(=O)OCC(=O)[C@@]1(OC(=O)CC)[C@@H](C)C[C@H]2[C@@H]3CCC4=CC(=O)C=C[C@]4(C)[C@@]3(F)[C@@H](O)C[C@@]21C [Betamethasone Dipropionate (Diprolene)] | cell viability | 96
CC(C)(C)c1cc(O)c(C(C)(C)C)cc1O | cell viability | 93.5
COC(=O)c1ccc2c(c1)nc(NC(=O)c1ccccc1)n2CCCc1ccccc1 | cell viability | 93.7
CCCN(CCC)C(=O)C1=Cc2ccc(-c3ccc(C(=O)N4CCCC4)cc3)cc2N=C(N)C1 | cell viability | 31
COC(=O)C1=COC(OC2OC(CO)C(O)C(O)C2O)C2C(C)CC(=O)C12O (stereo not drawn) [Hastatoside] | cell viability | 104
CCCCOc1c(C(=O)c2c(F)cc(C)cc2F)c[nH]c2nncc1-2 | cell viability | 87.7
C[C@@H](NC(=O)c1ncnc(N)c1Cl)c1ncc(C(=O)Nc2cc(C(F)(F)F)c(Cl)cn2)s1 | cell viability | 95.3
CCS(=O)(=O)CCn1c([N+](=O)[O-])cnc1C | cell viability | 98.2

====

Below, each entry is listed alongside its reported cell viability.
Tested on: K562
Assay: cell viability relative to vehicle control; higher = less cytotoxic
Conditions: 10 µM; SRSF2 genotype: SRSF2 wt/wt
Structures can show the parent of a compound that is named as a salt.

Compound | cell viability (%)
NC(=O)c1ccc(OCCCN2CC3CCCC3C2)cc1 (centres undefined) | 104
CCOc1ccn(-c2ccc(F)cc2)c(=O)c1C(=O)Nc1ccc(Oc2ccnc(N)c2Cl)c(F)c1 | 42
CC[C@H]1OC(=O)[C@@](C)(F)C(=O)[C@H](C)[C@@H](O[C@@H]2O[C@H](C)C[C@H](N(C)C)[C@H]2O)[C@](C)(OC)C[C@@H](C)C(=O)[C@H](C)[C@H]2N(CCCCn3cc(-c4cccc(N)c4)nn3)C(=O)O[C@]12C | 91.2
COc1ccccc1OCCN | 113
C[C@@H](CC[C@@]1(O)O[C@H]2C[C@H]3[C@@H]4CC[C@@H]5C[C@@H](O[C@@H]6O[C@H](CO)[C@H](O)[C@H](O)[C@H]6O[C@@H]6O[C@H](CO)[C@@H](O)[C@H](O)[C@H]6O)CC[C@]5(C)[C@H]4CC[C@]3(C)[C@H]2[C@@H]1C)CO[C@@H]1O[C@H](CO)[C@@H](O)[C@H](O)[C@H]1O | 89.5
CN[C@@H](C)C(=O)N[C@H](C(=O)N1CCC[C@H]1C(=O)N[C@H]1c2ccccc2C[C@H]1OCC#CC#CCO[C@@H]1Cc2ccccc2[C@@H]1NC(=O)[C@@H]1CCCN1C(=O)[C@@H](NC(=O)[C@H](C)NC)C1CCCCC1)C1CCCCC1 | 0.61
COc1ccc2cc1Oc1ccc(cc1)C[C@H]1c3cc(c(OC)cc3CCN1C)Oc1c(O)c(OC)cc3c1[C@H](C2)N(C)CC3 | 5.07
CS(=O)(=O)N1CCN(Cc2cc3nc(-c4cccc5[nH]ncc45)nc(N4CCOCC4)c3s2)CC1 | 94.5
CS(=O)(=O)c1ccc(-c2cnc(NCc3ccco3)n3cnnc23)cc1 | 97.2
CC(C)NCC(O)COc1ccc(COCCOC(C)C)cc1 (centres undefined) [Bisoprolol fumarate] | 89.9
CC(ONC(=O)c1cc(C(F)(F)F)cc(C(F)(F)F)c1)C(=O)Nc1ccc(Cl)cc1 (centres undefined) | 78.8
CC(C)c1c(C(=O)Nc2ccccc2)c(-c2ccccc2)c(-c2ccc(F)cc2)n1CC[C@@H](O)C[C@@H](O)CC(=O)O | 56.9
NC[C@@](O)(c1ccc(Cl)cc1)c1ccc(-c2cn[nH]c2)cc1 | 13
C[C@H]1COc2c(N3CCN(C)CC3)c(F)cc3c(=O)c(C(=O)O)cn1c23 [Levofloxacin hydrate] | 95.8
Cc1ccccc1C(=O)Nc1ccc(C(=O)N2CCCC(O)c3cc(Cl)ccc32)c(C)c1 (centres undefined) | 85.7
CN(C)C(=O)c1cc2cnc(Nc3ccc(N4CCNCC4)cn3)nc2n1C1CCCC1 | 110
O=P(O)(O)C(O)(Cc1cccnc1)P(=O)(O)O [Risedronate sodium] | 91.4
COc1cccc2c1C(=O)c1c(O)c3c(c(O)c1C2=O)CC(O)(C(=O)CO)CC3OC1CC(N)C(O)C(C)O1 (centres undefined) [Doxorubicin (Adriamycin) HCl] | 6.38
O=c1cc(-c2ccccc2)oc2cc(O)cc(O)c12 | 105
NC(=O)c1ccc(-c2nc(-c3ccc4c(c3)OCCO4)c(-c3ccccn3)[nH]2)cc1 | 92.9
CCC(=O)O[C@]1(C(=O)CCl)[C@@H](C)C[C@H]2[C@@H]3CCC4=CC(=O)C=C[C@]4(C)[C@@]3(F)[C@@H](O)C[C@@]21C [Clobetasol propionate] | 88.2
Cc1cc(=O)oc2cc(O)ccc12 | 99.6
COc1c2c(cc3oc(COC4OC(CO)C(O)C(O)C4O)cc(=O)c13)OC(C(C)(C)O)C2 (centres undefined) | 88.3
Cc1ccc(NC(=O)c2ccc(CN3CCN(C)CC3)cc2)cc1Nc1nccc(-c2cccnc2)n1 [Imatinib (STI571)] | 16.5
O=C1/C(=C/c2cccs2)CC/C1=C\c1cccs1 | 110
COc1ccc(CCNCC(O)COc2cccc(C)c2)cc1OC (centres undefined) [Bevantolol hydrochloride] | 88.2
Cc1ncc(-c2ccnc(Nc3ccc(S(C)(=O)=O)cc3)n2)n1C(C)C | 32.4
CC1(C)CCC2(C(=O)O)C(O)CC3(C)C(=CCC4C5(C)CC(O)C(O)C(C)(CO)C5CCC43C)C2C1 (centres undefined) | 103
Oc1ccc(/C=C/c2cc(O)cc(O)c2)cc1 | 91.6

====

Below, each entry is listed alongside its reported cell viability.
Tested on: OCI-AML2
Assay: cell viability relative to vehicle control; higher = less cytotoxic
Conditions: 10 µM; SRSF2 genotype: P95H/wt
Experimental readout: cell viability (%)

Molecule | Measured on | Units | Result
CC1=C(C(=O)Nc2cc3cn[nH]c3cc2F)C(c2ccc(C(F)(F)F)cc2)CC(=O)N1 (centres undefined) | OCI-AML2 | % | 23.6
O=C(Nc1ccc2c(O)cc(S(=O)(=O)O)cc2c1)Nc1ccc2c(O)cc(S(=O)(=O)O)cc2c1 [AMI-1, free acid] | OCI-AML2 | % | 109
CC(C)(C)NC(=O)[C@H]1CC[C@H]2[C@@H]3CC[C@H]4NC(=O)C=C[C@]4(C)[C@H]3CC[C@]12C [Finasteride] | OCI-AML2 | % | 99.7
Cc1cc(O)c2c(c1)C(=O)c1cc(O)cc(O)c1C2=O | OCI-AML2 | % | 89.1

====

Test system: OCI-AML2
Experiment: cell viability relative to vehicle control; higher = less cytotoxic
Settings: 10 µM; SRSF2 genotype: wt/wt
Structures can show the parent of a compound that is named as a salt.
Experimental readout: cell viability (%)

Molecule | Experimental readout | Units | Result
N#Cc1cc2cc(CN3CCC(Nc4ncnc5sc(CC(F)(F)F)cc45)CC3)ccc2[nH]1 | cell viability | % | 21.5
Cc1ncc([N+](=O)[O-])n1C | cell viability | % | 109
COc1cc(CCC(=O)CC(=O)CCc2ccc(O)c(OC)c2)ccc1O [Tetrahydrocurcumin] | cell viability | % | 97.3
CC(C)[C@H](N)C(=O)OCC(CO)OCn1cnc2c(=O)nc(N)[nH]c21 (stereo partly drawn) [Valganciclovir Hydrochloride] | cell viability | % | 89.2
CC(=O)[O-].[K+] [Potassium acetate] | cell viability | % | 93.4
CC[C@@]1(O)C(=O)OCc2c1cc1n(c2=O)Cc2cc3cc(O)ccc3nc2-1 [Hydroxy Camptothecine] | cell viability | % | 2.23
O=C(O)CCCC[C@@H]1CCSS1 (racemic) | cell viability | % | 98.9
COc1ncc(-c2ccc3nccc(-c4ccnnc4)c3c2)cc1NS(=O)(=O)c1ccc(F)cc1F | cell viability | % | 1.55
CO/N=C(\C(=O)N[C@@H]1C(=O)N2C(C(=O)[O-])=C(C[n+]3cccc4c3CCCC4)CS[C@H]12)c1csc(N)n1 [Cefquinome sulfate] | cell viability | % | 91.6
C[C@@H]1CN(CC(=O)Nc2ccc3c(c2)Cc2cccc(-c4cc(=O)cc(N5CCOCC5)o4)c2S3)C[C@H](C)O1 | cell viability | % | 64.2
CC(C)[C@H](C(=O)Nc1ccc(C(=O)NO)cc1)c1ccccc1 | cell viability | % | 4.03
CC(C)c1ccc(C=O)cc1 | cell viability | % | 93.4
O=C1C[C@@H](c2ccc(O[C@@H]3O[C@H](CO)[C@@H](O)[C@H](O)[C@H]3O)cc2)Oc2cc(O)ccc21 | cell viability | % | 91.4
CN(C)c1cccc(-c2c3c(=O)n(-c4ccccc4Cl)[nH]c3cc(=O)n2C)c1 | cell viability | % | 114
Cc1[nH]c(/C=C2\C(=O)Nc3ccc(F)cc32)c(C)c1C(=O)NCCN1CCCC1 [Toceranib phosphate] | cell viability | % | 19.6
Cc1c(C(C)C)c(=O)n(-c2ccccc2)n1C [Propyphenazone (4-Isopropylantipyrine)] | cell viability | % | 97.4
CC1=CC(=O)CC(C)(C)C1(O)/C=C/C(C)=C\C(=O)O (stereo not drawn) [Abscisic Acid (Dormin)] | cell viability | % | 102
CCCNS(=O)(=O)Nc1ncnc(OCCOc2ncc(Br)cn2)c1-c1ccc(Br)cc1 | cell viability | % | 110
